Where do the numbers come from? From paper PMC12723664.

- target of assay: BtsuOBP83b
- test name: Fluorescence competitive binding assay (1-NPN probe), recombinant BtsuOBP83b
- Parameters: species or system Bactrocera tsuneonis
- condition label: relative dissociation constant calculated from IC50; competition with 1-NPN; ligand 4–32 μmol/L; pH 7.4; read-out: Ki (μM) OBP83b
- Protocol: Full-length sequences of BtsuOBP83a and BtsuOBP83b were amplified using specific primers (Supplementary Table S1). Purified PCR products were cloned into the pGEM-T vector (Promega) for sequencing verification. […] The size and purity of OBP proteins were evaluated via SDS-PAGE, and protein concentrations were determined using the Bradford method. […]
quantity kind: Ki

Field Ki (system: BtsuOBP83b) for entry CCCCOC(=O)CC [Butyl propionate] = > 50 µM
